# TEST_NAME: Oral bioavailability in rat compound administered as suspension in crystalline freebase in 0.5% (w/v) methylcellulose and 0.2% (w/v) polysorbate 80 in water
# Format: ADME, organism-based
# COND: in vivo
ASSAY_READOUT: bioavailability (%)
Give the quantity in %, number only.

## Task Look up bioavailability for this compound: Cc1c(NC(=O)c2cc3c(s2)CCCC3)cccc1-c1cn(C)c(=O)c(Nc2ccc([C@@H]3C(=O)N(C)CCN3C)cc2)n1
## Result 16

* * *

# TEST_NAME: Clearance in rat
# Assay type: ADME, organism-based
# COND: in vivo
Consider the cut-off 6 mL/min/kg. If the recorded clearance is strictly smaller, the label is yes (1); if not, the label is no (0).

## Task Criterion: clearance strictly below 6 mL/min/kg. Is it met by Cc1c(NC(=O)c2cc3c(s2)CCCC3)cccc1-c1cn(C)c(=O)c(Nc2ccc(C3CCN(C)CC3)cc2)n1 ?
## Result no (0)

## Task What about this compound? Cc1c(NC(=O)c2cc3c(s2)CCCC3)cccc1-c1cn(C)c(=O)c(Nc2ccc([C@H]3C(=O)N(C)CCN3C)cc2)n1
## Result no (0)

## Task Cc1c(NC(=O)c2cc3c(s2)CCCC3)cccc1-c1cn(C)c(=O)c(Nc2cccnc2)n1 ?
## Result no (0)

## Task And then Cc1c(NC(=O)c2cc3c(s2)CCCC3)cccc1-c1cn(C)c(=O)c(Nc2ccncn2)n1 , what is it?
## Result yes (1)

## Task Check Cc1c(NC(=O)c2cc3c(s2)CCCC3)cccc1-c1cn(C)c(=O)c(Nc2ccc([C@@H]3C(=O)N(C)CCN3C)cc2)n1 too.
## Result yes (1)
